biological target: 5-hydroxytryptamine receptor 2A (Homo sapiens, UniProt P28223); assay: Agonist activity at human 5-HT2AR expressed in HEK293 cells incubated upto 90 sec by Fluo-4 AM dye based Ca2+ imaging assay
Sequence (P28223 whole entry): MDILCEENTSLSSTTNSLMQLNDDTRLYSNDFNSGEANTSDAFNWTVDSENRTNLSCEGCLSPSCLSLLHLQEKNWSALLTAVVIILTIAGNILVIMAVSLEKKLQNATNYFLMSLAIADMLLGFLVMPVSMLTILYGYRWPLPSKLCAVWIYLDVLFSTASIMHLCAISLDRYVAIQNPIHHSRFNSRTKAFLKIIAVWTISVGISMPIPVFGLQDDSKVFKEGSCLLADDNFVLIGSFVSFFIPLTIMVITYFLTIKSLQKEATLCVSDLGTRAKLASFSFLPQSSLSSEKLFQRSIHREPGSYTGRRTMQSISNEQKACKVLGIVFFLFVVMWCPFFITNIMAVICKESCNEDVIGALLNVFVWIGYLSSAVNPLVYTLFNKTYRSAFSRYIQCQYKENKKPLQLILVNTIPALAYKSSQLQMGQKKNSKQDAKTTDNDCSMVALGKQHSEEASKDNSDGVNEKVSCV

{"Structure": "COc1cc(CCN)c(OC)cc1Br", "System under test": "5-hydroxytryptamine receptor 2A (Homo sapiens, UniProt P28223)", "EC50 (nM)": 1.6}
